- assay target: Msn1 (UniProt P22148)
- Sequence: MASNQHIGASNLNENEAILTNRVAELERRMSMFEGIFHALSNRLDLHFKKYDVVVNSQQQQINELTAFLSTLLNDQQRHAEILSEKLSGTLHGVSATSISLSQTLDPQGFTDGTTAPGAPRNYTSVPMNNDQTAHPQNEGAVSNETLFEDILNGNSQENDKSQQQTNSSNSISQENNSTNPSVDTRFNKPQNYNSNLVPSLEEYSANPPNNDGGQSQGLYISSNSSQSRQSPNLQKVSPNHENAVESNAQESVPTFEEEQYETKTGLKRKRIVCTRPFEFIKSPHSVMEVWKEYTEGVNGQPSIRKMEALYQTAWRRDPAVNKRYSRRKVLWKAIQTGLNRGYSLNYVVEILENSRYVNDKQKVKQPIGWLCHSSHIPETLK
- assay summary: PBM E-score (8-mer binding enrichment) (E-score (-0.5 to 0.5)); higher = stronger / more preferred TF binding
- condition notes: protein concentration: 200 nM; construct: GST-full length
The full ranking holds about 33,000 sequences; the median of “E-score (-0.5 to 0.5)” is about -0.013, and the highest 2% start at about 0.3. For the sample, the highest values were picked, then their nearest neighbours and some sequences at random.
If the reported PBM E-score equals or exceeds -0.03, assign t. If not, assign f.

INSERT INTO results (sequence_string, assigned_label) VALUES
  ('GCCGTCGC', 'f');

Exercise: Entry CGACATGA : is its PBM E-score no less than -0.03?
Solution: t

Exercise: Entry AGTCATAA : is its PBM E-score no less than -0.03?
Solution: t

Exercise: Entry CGTAGGGA : is its PBM E-score no less than -0.03?
Solution: t

Exercise: Entry GCACATGA : is its PBM E-score no less than -0.03?
Solution: f

Exercise: Entry CGGACATC : is its PBM E-score no less than -0.03?
Solution: t

Exercise: Entry CCGGCTCC : is its PBM E-score no less than -0.03?
Solution: f

Exercise: Entry GACTGCAA : is its PBM E-score no less than -0.03?
Solution: f

Exercise: Entry GGACATGA : is its PBM E-score no less than -0.03?
Solution: t

Exercise: Entry CGTCATAA : is its PBM E-score no less than -0.03?
Solution: t

Exercise: Entry GGACATAA : is its PBM E-score no less than -0.03?
Solution: t

---

- assay target: Msn1 (UniProt P22148)
- Sequence: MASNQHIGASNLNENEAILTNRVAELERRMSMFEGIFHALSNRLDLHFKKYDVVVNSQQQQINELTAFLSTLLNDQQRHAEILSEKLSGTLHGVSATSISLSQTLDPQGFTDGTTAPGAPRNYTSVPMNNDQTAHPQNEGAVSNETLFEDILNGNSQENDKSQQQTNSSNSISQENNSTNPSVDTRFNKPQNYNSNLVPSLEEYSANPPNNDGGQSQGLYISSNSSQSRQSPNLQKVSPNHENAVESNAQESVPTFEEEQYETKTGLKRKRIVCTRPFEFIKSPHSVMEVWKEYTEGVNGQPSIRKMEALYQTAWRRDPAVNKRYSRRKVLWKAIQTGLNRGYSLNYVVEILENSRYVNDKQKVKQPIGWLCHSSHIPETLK
- assay summary: PBM E-score (8-mer binding enrichment) (E-score (-0.5 to 0.5)); higher = stronger / more preferred TF binding
- condition notes: protein concentration: 200 nM; construct: GST-full length
Over roughly 33,000 sequences, “E-score (-0.5 to 0.5)” has its median near -0.013; the highest 2% begin near 0.3. The sample as a whole holds a higher share of the highest values than the screen did.
I'd appreciate it if you could supply PBM E-score values for the items below.
Answers are plain numbers.

Check out these entries, answers already filled in.
INSERT INTO assay_data (sequence_string, observed_value) VALUES
  ('AAGCCAAG', -0.237),
  ('GACAAGAC', 0.311),
  ('CATCAGAA', 0.00838),
  ('ATGCTACC', -0.126),
  ('GATCCTTA', -0.107);

Report PBM E-score for each item below.
1. TAGGTGAA
2. CACAAGAC

Solution:
0.0103
-0.118

Report PBM E-score for each item below.
1. AACAAGAC
2. CTGGGCCC
3. GACATCAC
4. AGGGAGGG

Solution:
1. 0.135
2. -0.252
3. 0.118
4. -0.283
